method-summary: in vitro
Format: cell-based, human
assay-setup: human, HEK293T Viability at 30 µM [%]
Description: Cytotoxic effects of test compounds on eukaryotic cells were investigated using a HEK293T cell viability assay. First, the cell density of a HEK293T culture was determined. […] In cells with an active metabolism, the PrestoBlue dye is reduced, causing it to fluorescence. The fluorescence (λex = 560 nm, λem = 590 nm) was measured in an EnVision Multilable Plate Reader (Perkin Elmer, Waltham, MA, USA; integration time 0.1 sec/well).
parameter: viability at 48 h, 30 µM
Lab note: write values as number then unit, every time.

Guide cases for viability at 48 h, 30 µM, answers given:
compound: CN(CCNC(=O)OC(C)(C)C)c1ccc(-c2c(C#N)c(N)nc3sc(C(=O)Nc4ccc(Cl)cc4)c(N)c23)c(Cl)c1
viability at 48 h, 30 µM: 81.7%
--
compound: N#Cc1c(N)nc2sc(C(=O)Nc3ccc(F)cc3)c(N)c2c1-c1ccc(N2CCCC2)cc1Cl
viability at 48 h, 30 µM: 74%
--
compound: CC(C)(C)OC(=O)N1CCN(c2ccc(-c3c4c(nc5sc(C(=O)Nc6ccc(Cl)cc6)c(N)c35)CCCC4)c(Cl)c2)CC1 [Compound 17k]
viability at 48 h, 30 µM: 84.3%
--
compound: N#Cc1c(N)nc2sc(C(=O)Nc3ccc(Cl)cc3)c(N)c2c1-c1ccc(N2CCCC2)cc1Cl
viability at 48 h, 30 µM: 91.9%

Which viability at 48 h, 30 µM value belongs to Cc1cccc(-c2c(C(=O)O)c(C)nc3sc(C(=O)Nc4ccc(Cl)cc4)c(N)c23)c1 [Compound 17i] ?
87.6%

Next entry: `N#Cc1c(N)nc2sc(C(=O)Nc3cccc(Cl)c3)c(N)c2c1-c1ccc(N2CCOCC2)cc1Cl`
105%

Next entry: Nc1c(C(=O)Nc2ccc(F)cc2)sc2nc3c(c(-c4ccccc4)c12)CCC3 [Compound 17c]
92.7%
